Measured values drawn from patent US12441733B2 for this set.

- Tested on: TMD8 cells
- method notes: Resazurin cell viability (proliferation) assay in TMD8 DLBCL cells
- Format: cell-based
- measurement setup: Homo sapiens, TMD8 cells (BTK dependent), 72 h, 50% growth inhibition vs vehicle, read-out: TMD8 Prol GI50
- Protocol: Compounds of the invention were tested in the following cellular assays. […] The effect of the BTK compounds on cell proliferation was measured by a Resazurin (Sigma, #R7017) based cell viability assay. […] The metabolic activity was assessed by measuring the fluorescence signal (ex. 530 nm; em. 600 nm). […]
Each item that follows carries a reported log10(GI50).
Transform log10 | Measure GI50 | Unit nM

These recorded examples may help you get a feel for the data.
COc1ccc(C(=O)N2CCC3(CCN(Cc4ccc(-c5cc6c(-c7cc(F)cc(NC(=O)c8ccc(C(C)(C)O)cc8F)c7C)ncnc6[nH]5)cc4)C[C@H]3CO)CC2)cc1N1CCC(=O)NC1=O (single isomer, unassigned) [Compound 25]: 1.06
Cc1c(NC(=O)c2ccc(C(C)(C)O)cc2F)cc(F)cc1-c1ncnc2[nH]c(-c3ccc(COC4CCN(CCC5CCN(C(=O)c6ccc(F)c(N7CCC(=O)NC7=O)c6)CC5)CC4)cc3)cc12 [Compound 6]: -0.28
COc1ccc(C(=O)N2CCN(CCNCCCCOc3ccc(-c4cc5c(-c6cc(F)cc(NC(=O)c7ccc(C(C)(C)O)cc7F)c6C)ncnc5[nH]4)cc3)CC2)cc1N1CCC(=O)NC1=O [Compound 36]: 0.47
COc1ccc(C(=O)N2CCC(CCN3CCC(Oc4ccc(-c5cc6c(-c7cc(F)cc(NC(=O)c8ccc(C(C)(C)O)cc8F)c7C)ncnc6[nH]5)cc4)CC3)CC2)cc1N1CCC(=O)NC1=O [Compound 38]: -0.29
COc1ccc(C(=O)NCCN2CC3(CCN(Cc4ccc(-c5cc6c(-c7cc(F)cc(NC(=O)c8ccc(C(C)(C)O)cc8F)c7C)ncnc6[nH]5)cc4)CC3)C2)cc1N1CCC(=O)NC1=O [Compound 52]: 1.36

Query string: Query: log10(GI50); subject: COc1ccc(C(=O)N2CCC(OC3CCN(CCc4ccc(-c5cc6c(-c7cc(F)cc(NC(=O)c8ccc(C(C)(C)O)cc8F)c7C)ncnc6[nH]5)cc4)CC3)CC2)cc1N1CCC(=O)NC1=O [Compound 34]
Result string: 0.23

Query string: Which log10(GI50) value is on record for COc1ccc(C(=O)N2CCC(C(=O)N3CCN(Cc4ccc(-c5cc6c(-c7cc(F)cc(NC(=O)c8ccc(C(C)(C)O)cc8F)c7C)ncnc6[nH]5)cc4)CC3)CC2)cc1N1CCC(=O)NC1=O [Compound 33] ?
Result string: 0.60

----------
Entries annotated with measured DC50
- tested system: IKZF3-GFP (Homo sapiens, UniProt Q96SW2+Q9UKT9)
- Construct: expressed in transfected cells; host or cells: HEK293A (Invitrogen R70507), lentiviral transduction with pLenti6-IKZF3-GFP-Ires-RFP, blasticidin selection
- method notes: IKZF3-GFP protein abundance flow cytometry assay in HEK293A cells
- Format: cell-based
- measurement setup: HEK293A IKZF3-GFP-iresRFP cells, 24 h, GFP signal by flow cytometry

Solved entries (count: 4):
COc1ccc(C(=O)N2CCC(CN3CCC(Oc4ccc(-c5cc6c(-c7cc(F)cc(NC(=O)c8ccc(C(C)(C)O)cc8F)c7C)ncnc6[nH]5)cc4)CC3)CC2)cc1N1CCC(=O)NC1=O: > 10000 nM
COc1ccc(C(=O)N2CCC3(CC2)CCN(C(C)(C)Cc2ccc(-c4cc5c(-c6cc(F)cc(NC(=O)c7ccc(C(C)(C)O)cc7F)c6C)ncnc5[nH]4)cc2)CC3)cc1N1CCC(=O)NC1=O: > 1100 nM
COc1ccc(C(=O)N2CCC3(CCN(CCc4ccc(-c5cc6c(-c7cc(F)cc(NC(=O)c8ccc(C(C)(C)O)cc8F)c7C)ncnc6[nH]5)cc4)CC3)CC2)cc1N1CCC(=O)NC1=O: > 5500 nM
Cc1ccc(C(=O)N2CCC3(CCN(CCc4ccc(-c5cc6c(-c7cc(F)cc(NC(=O)c8ccc(C(C)(C)O)cc8F)c7C)ncnc6[nH]5)cc4)CC3)CC2)cc1N1CCC(=O)NC1=O: > 370 nM

Okay, next one:
Query string: So what does the record say about DC50 for `COc1ccc(C(=O)N2CCC(OC3CCN(Cc4ccc(-c5cc6c(-c7cc(F)cc(NC(=O)c8ccc(C(C)(C)O)cc8F)c7C)ncnc6[nH]5)cc4)CC3)CC2)cc1N1CCC(=O)NC1=O` ?
Result string: > 2600 nM

----------
- tested system: BTK-GFP (Homo sapiens, UniProt Q06187+Q96SW2)
- Construct: expressed in transfected cells; host or cells: HEK293A (Invitrogen R70507), lentiviral transduction with pLenti6-BTK-GFP-Ires-RFP, blasticidin selection
- method notes: BTK-GFP protein abundance flow cytometry assay in HEK293A cells
- Type: cell-based
- measurement setup: HEK293A BTK-GFP-iresRFP cells, 24 h; % protein remaining at the concentration at which maximum degradation is seen
Mark each entry T if its BTK deg Amax sits below 2%, and F for all others.

Cc1c(NC(=O)c2ccc(C(C)(C)O)cc2F)cc(F)cc1-c1ncnc2[nH]c(-c3ccc(CNCCCCCN(C)C(=O)c4ccc(Cl)c(N5CCC(=O)NC5=O)c4)cc3)cc12 [Compound 42]: F
Cc1c(NC(=O)c2ccc(C(C)(C)O)cc2F)cc(F)cc1-c1ncnc2[nH]c(-c3ccc(CN4CCC5(CC4)CCN(C(=O)c4ccc(F)c(N6CCC(=O)NC6=O)c4)CC5)cc3)cc12 [Compound 14]: F

Query string: Determine if COc1ccc(C(=O)N2CCC3(CCN(Cc4ccc(-c5cc6c(-c7cc(F)cc(NC(=O)c8ccc(C(C)(C)O)cc8F)c7C)ncnc6[nH]5)cc4)CC3)CC2)cc1N1CCC(=O)NC1=O [Compound 9] shows BTK deg Amax strictly lower than 2%.
Result string: F

Query string: Lab log: compare recorded BTK deg Amax with 2%; is it strictly lower for COc1ccc(C(=O)N2CCC3(CC2)CCN(C(C)(C)Cc2ccc(-c4cc5c(-c6cc(F)cc(NC(=O)c7ccc(C(C)(C)O)cc7F)c6C)ncnc5[nH]4)cc2)CC3)cc1N1CCC(=O)NC1=O [Compound 20] ?
Result string: T

Query string: For this compound, is BTK deg Amax lower than 2%? COc1ccc(C(=O)N2CCC(OCCN3CCC(Oc4ccc(-c5cc6c(-c7cc(F)cc(NC(=O)c8ccc(C(C)(C)O)cc8F)c7C)ncnc6[nH]5)cc4)CC3)CC2)cc1N1CCC(=O)NC1=O [Compound 58]
Result string: T

----------
- tested system: BTK(C481S)-GFP (Homo sapiens, UniProt Q06187+Q96SW2, C481S)
- Construct: CHYSEL (cis-acting hydrolase element, 2A) remnant after GFP; mCherry is split off as a separate protein (C); expressed in transfected cells; host or cells: TMD8 cells, lentiviral transduction with pLenti6-BTK(C481S)-GFP-CHYSEL-mCherry
- Sequence (Q06187 whole entry C481S): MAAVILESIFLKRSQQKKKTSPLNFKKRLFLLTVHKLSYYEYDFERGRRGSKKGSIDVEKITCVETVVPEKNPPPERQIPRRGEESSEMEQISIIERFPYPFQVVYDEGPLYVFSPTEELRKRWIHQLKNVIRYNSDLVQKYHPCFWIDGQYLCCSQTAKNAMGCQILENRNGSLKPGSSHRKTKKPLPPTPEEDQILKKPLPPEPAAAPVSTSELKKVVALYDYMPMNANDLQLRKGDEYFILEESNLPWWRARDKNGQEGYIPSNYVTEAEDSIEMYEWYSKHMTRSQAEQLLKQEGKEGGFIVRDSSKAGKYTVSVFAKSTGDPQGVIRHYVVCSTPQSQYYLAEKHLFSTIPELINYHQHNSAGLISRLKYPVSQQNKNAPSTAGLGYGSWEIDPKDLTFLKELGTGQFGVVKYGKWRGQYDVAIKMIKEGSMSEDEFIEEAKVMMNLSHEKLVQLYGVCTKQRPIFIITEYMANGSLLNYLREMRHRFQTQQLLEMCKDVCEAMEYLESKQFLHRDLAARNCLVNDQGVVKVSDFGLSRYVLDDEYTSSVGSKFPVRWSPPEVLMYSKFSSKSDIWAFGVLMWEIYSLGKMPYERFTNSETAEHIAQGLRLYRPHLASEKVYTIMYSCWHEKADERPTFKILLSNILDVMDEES
- Sequence (Q96SW2 whole entry): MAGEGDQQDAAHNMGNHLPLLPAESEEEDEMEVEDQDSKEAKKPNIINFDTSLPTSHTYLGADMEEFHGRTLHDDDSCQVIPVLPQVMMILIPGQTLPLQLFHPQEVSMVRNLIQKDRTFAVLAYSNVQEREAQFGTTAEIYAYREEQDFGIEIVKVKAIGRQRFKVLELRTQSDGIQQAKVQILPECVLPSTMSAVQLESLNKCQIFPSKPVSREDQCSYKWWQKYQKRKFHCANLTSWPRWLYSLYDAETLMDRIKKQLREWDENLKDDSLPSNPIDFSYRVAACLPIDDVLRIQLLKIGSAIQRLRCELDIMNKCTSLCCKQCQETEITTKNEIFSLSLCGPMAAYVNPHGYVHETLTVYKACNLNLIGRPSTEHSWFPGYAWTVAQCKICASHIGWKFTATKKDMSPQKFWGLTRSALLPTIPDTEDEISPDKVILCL
- Sequence (Q16531 whole entry partner): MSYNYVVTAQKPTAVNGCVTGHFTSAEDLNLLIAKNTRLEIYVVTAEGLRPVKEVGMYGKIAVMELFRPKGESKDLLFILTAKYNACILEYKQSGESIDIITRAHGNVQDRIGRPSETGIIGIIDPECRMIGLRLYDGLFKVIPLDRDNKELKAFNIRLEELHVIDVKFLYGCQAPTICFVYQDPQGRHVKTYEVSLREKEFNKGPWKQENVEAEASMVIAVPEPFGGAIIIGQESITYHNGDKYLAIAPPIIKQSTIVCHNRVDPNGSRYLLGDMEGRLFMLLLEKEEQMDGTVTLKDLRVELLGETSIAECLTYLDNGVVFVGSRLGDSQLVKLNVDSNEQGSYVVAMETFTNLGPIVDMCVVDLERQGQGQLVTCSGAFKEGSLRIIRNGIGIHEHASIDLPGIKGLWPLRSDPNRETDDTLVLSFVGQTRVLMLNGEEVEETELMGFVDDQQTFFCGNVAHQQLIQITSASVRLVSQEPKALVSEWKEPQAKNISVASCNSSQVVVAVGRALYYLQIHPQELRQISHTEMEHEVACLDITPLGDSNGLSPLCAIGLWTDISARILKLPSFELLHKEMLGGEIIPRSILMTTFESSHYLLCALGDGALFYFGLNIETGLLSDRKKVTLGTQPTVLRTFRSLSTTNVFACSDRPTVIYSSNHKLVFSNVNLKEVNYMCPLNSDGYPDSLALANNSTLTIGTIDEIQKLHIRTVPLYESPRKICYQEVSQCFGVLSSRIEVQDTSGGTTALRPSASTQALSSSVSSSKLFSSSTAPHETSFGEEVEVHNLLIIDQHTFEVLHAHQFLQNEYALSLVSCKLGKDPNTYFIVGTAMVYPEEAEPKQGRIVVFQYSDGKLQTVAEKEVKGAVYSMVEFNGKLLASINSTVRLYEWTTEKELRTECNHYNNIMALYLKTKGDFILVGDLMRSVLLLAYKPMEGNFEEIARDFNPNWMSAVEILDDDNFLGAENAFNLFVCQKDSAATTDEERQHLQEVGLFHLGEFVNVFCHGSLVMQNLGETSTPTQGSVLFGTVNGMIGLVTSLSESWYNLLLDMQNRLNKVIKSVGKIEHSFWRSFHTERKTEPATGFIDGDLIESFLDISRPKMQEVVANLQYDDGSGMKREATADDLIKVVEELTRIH
- method notes: BTK(C481S)-GFP protein abundance flow cytometry assay in TMD8 cells
- Assay type: cell-based
- measurement setup: TMD8 cells expressing BTK(C481S)-GFP, GFP signal by flow cytometry
Item-by-item account of DC50

Below, each entry is followed by its recorded DC50 result.
Cc1ccc(C(=O)N2CCC3(CCN(CCc4ccc(-c5cc6c(-c7cc(F)cc(NC(=O)c8ccc(C(C)(C)O)cc8F)c7C)ncnc6[nH]5)cc4)CC3)CC2)cc1N1CCC(=O)NC1=O [Compound 5]: 0.57 nM
COc1ccc(C(=O)N2CCC(CN3CCC(Oc4ccc(-c5cc6c(-c7cc(F)cc(NC(=O)c8ccc(C(C)(C)O)cc8F)c7C)ncnc6[nH]5)cc4)CC3)CC2)cc1N1CCC(=O)NC1=O [Compound 19]: 0.62 nM

Query string: Look up DC50 for this molecule: COc1ccc(C(=O)N2CCN(CCCCNCc3ccc(-c4cc5c(-c6cc(F)cc(NC(=O)c7ccc(C(C)(C)O)cc7F)c6C)ncnc5[nH]4)cc3)CC2)cc1N1CCC(=O)NC1=O [Compound 40]
Result string: 3.03 nM

----------
- Test system: TMD8 cells
- method notes: Resazurin cell viability (proliferation) assay in TMD8 DLBCL cells
- Type: cell-based
- measurement setup: Homo sapiens, TMD8 cells (BTK dependent), 72 h, 50% growth inhibition vs vehicle, read-out: TMD8 Prol GI50
Define the label as Met when GI50 is strictly less than 0.8 nM and as Not met in all remaining cases.

Worked examples follow.
Cc1ccc(C(=O)N(C)CCCCCNCc2ccc(-c3cc4c(-c5cc(F)cc(NC(=O)c6ccc(C(C)(C)O)cc6F)c5C)ncnc4[nH]3)cc2)cc1N1CCC(=O)NC1=O: Not met
COc1ccc(C(=O)N2CCN(CCN3CCC(COc4ccc(-c5cc6c(-c7cc(F)cc(NC(=O)c8ccc(C(C)(C)O)cc8F)c7C)ncnc6[nH]5)cc4)CC3)CC2)cc1N1CCC(=O)NC1=O: Met
COc1ccc(C(=O)N2CCC(CCN3CCC(COc4ccc(-c5cc6c(-c7cc(F)cc(NC(=O)c8ccc(C(C)(C)O)cc8F)c7C)ncnc6[nH]5)cc4)CC3)CC2)cc1N1CCC(=O)NC1=O: Met
Cc1c(NC(=O)c2ccc(C(C)(C)O)cc2F)cc(F)cc1-c1ncnc2[nH]c(-c3ccc(CN4CCC5(CC4)CN(CCCNC(=O)c4ccc(Cl)c(N6CCC(=O)NC6=O)c4)CCO5)cc3)cc12: Not met
COc1ccc(C(=O)N2CCC(CCCN3CCC(Oc4ccc(-c5cc6c(-c7cc(F)cc(NC(=O)c8ccc(C(C)(C)O)cc8F)c7C)ncnc6[nH]5)cc4)CC3)CC2)cc1N1CCC(=O)NC1=O: Met

Query string: Check if GI50 falls below 0.8 nM for `COc1ccc(C(=O)N2CCC(CN3CCC(Oc4ccc(-c5cc6c(-c7cc(F)cc(NC(=O)c8ccc(C(C)(C)O)cc8F)c7C)ncnc6[nH]5)cc4)CC3)CC2)cc1N1CCC(=O)NC1=O` .
Result string: Met

Query string: Problem: For the compound `COc1ccc(C(=O)N2CCC3(CCN(CCCc4ccc(-c5cc6c(-c7cc(F)cc(NC(=O)c8ccc(C(C)(C)O)cc8F)c7C)ncnc6[nH]5)cc4)CC3)CC2)cc1N1CCC(=O)NC1=O` , is GI50 under 0.8 nM?
Result string: Not met

Query string: Input `COc1ccc(C(=O)N2CCC3(CCN(Cc4ccc(-c5cc6c(-c7cc(F)cc(NC(=O)c8ccc(C(C)(C)O)cc8F)c7C)ncnc6[nH]5)cc4)CC3)C2)cc1N1CCC(=O)NC1=O` ; condition: GI50 strictly below 0.8 nM. Does it hold?
Result string: Not met

Query string: In plain terms, does `COc1ccc(C(=O)N2CCC3(CCN(Cc4ccc(-c5cc6c(-c7cc(F)cc(NC(=O)c8ccc(C(C)(C)O)cc8F)c7C)ncnc6[nH]5)cc4)C3)CC2)cc1N1CCC(=O)NC1=O` come in under 0.8 nM for GI50?
Result string: Not met

Query string: Dear reviewer, please state whether `Cc1c(NC(=O)c2ccc(C(C)(C)O)cc2F)cc(F)cc1-c1ncnc2[nH]c(-c3ccc(CNCCCCCN(C)C(=O)c4ccc(Cl)c(N5CCC(=O)NC5=O)c4)cc3)cc12` has GI50 strictly beneath 0.8 nM.
Result string: Not met

Query string: Report whether reported GI50 is lower than 0.8 nM (strictly) for `Cc1c(NC(=O)c2ccc(C(C)(C)O)cc2F)cc(F)cc1-c1ncnc2[nH]c(-c3ccc(CN4CCC5(CC4)CCN(C(=O)c4ccc(F)c(N6CCC(=O)NC6=O)c4)CC5)cc3)cc12`
Result string: Not met
